- Test system: Mycobacterium tuberculosis
- PROCEDURE TEXT: Bacteriostatic activity against Mycobacterium tuberculosis H37Rv at 0.5 ug/mL assessed as growth index after 10 days by radiometric growth assay (reference value: 210 growth index)
- Type: functional
Provide the reported Growth_index of each item.
Numbers only.

MOLECULE: Cn1c(=O)n(C)c(=O)n(C[S+]([O-])CC(N)=O)c1=O (centres undefined)
VALUE MEASURED: 50

Record Growth_index per entry; entries follow.
1. Cn1c(=O)n(C)c(=O)n(CS(=O)(=O)CC(=O)NN)c1=O
2. Cn1c(=O)n(C)c(=O)n(CCS(=O)(=O)CC(=O)NN)c1=O
3. Cn1c(=O)n(C)c(=O)n(CCCCC[S+]([O-])CC(N)=O)c1=O (centres undefined)

Response:
52
53
60

----------
Provide the reported Growth_index of each item.
- Test system: Mycobacterium tuberculosis
- PROCEDURE TEXT: Bacteriostatic activity against Mycobacterium tuberculosis H37Rv at 1 ug/mL assessed as growth index after 7 days by radiometric growth assay (reference value: 210 growth index)
- Format: functional
Give bare numbers.

COMPOUND: Cn1c(=O)n(C)c(=O)n(CCC[S+]([O-])CC(=O)NN)c1=O (configuration not stated)
Growth_index: 5
//
COMPOUND: Cn1c(=O)n(C)c(=O)n(CCCCS(=O)(=O)CC(N)=O)c1=O
Growth_index: 54
//
COMPOUND: Cn1c(=O)n(C)c(=O)n(CC[S+]([O-])CC(=O)NN)c1=O (configuration not stated)
Growth_index: 50
//
COMPOUND: Cn1c(=O)n(C)c(=O)n(CC(O)CS(=O)(=O)CC(=O)NN)c1=O (configuration not stated)
Growth_index: 35

// next entry
Entry Cn1c(=O)n(C)c(=O)n(CCCCCS(=O)(=O)CC(=O)NN)c1=O ; Growth_index = 50

----------
- Tested on: Mycobacterium tuberculosis
- PROCEDURE TEXT: Bacteriostatic activity against Mycobacterium tuberculosis H37Rv at 0.1 ug/mL assessed as growth index after 7 days by radiometric growth assay (reference value: 210 growth index)
- Format: functional
Provide the reported Growth_index of each item.

Some entries whose results are on file:
COMPOUND: Cn1c(=O)n(C)c(=O)n(CCCCC[S+]([O-])CC(N)=O)c1=O (stereo not drawn)
MEASURE: Growth_index
VALUE MEASURED: >90
--
COMPOUND: Cn1c(=O)n(C)c(=O)n(CCCCCCS(=O)(=O)CC(=O)NN)c1=O
MEASURE: Growth_index
VALUE MEASURED: >90

// next entry
Entry Cn1c(=O)n(C)c(=O)n(C[S+]([O-])CC(N)=O)c1=O (stereo not drawn) ; Growth_index = >90

----------
- Tested on: Mycobacterium tuberculosis
- PROCEDURE TEXT: Bacteriostatic activity against Mycobacterium tuberculosis H37Rv at 1 ug/mL assessed as growth index after 3 days by radiometric growth assay (reference value: 210 growth index)
- Type: functional
MEASURE: Growth_index
One number for each entry.

MOLECULE: Cn1c(=O)n(C)c(=O)n(CCCS(=O)(=O)CC(N)=O)c1=O
Growth_index: 20

MOLECULE: Cn1c(=O)n(C)c(=O)n(CC[S+]([O-])CC(=O)NN)c1=O (stereo not given)
Growth_index: 10

MOLECULE: Cn1c(=O)n(C)c(=O)n(CCCCC[S+]([O-])CC(N)=O)c1=O (stereo not given)
Growth_index: 12

MOLECULE: Cn1c(=O)n(C)c(=O)n(CCCCS(=O)(=O)CC(N)=O)c1=O
Growth_index: 20

// next entry
Entry Cn1c(=O)n(C)c(=O)n(CCCCCC[S+]([O-])CC(N)=O)c1=O (stereo not given) ; Growth_index = 25

----------
- Test system: Mycobacterium tuberculosis
- PROCEDURE TEXT: Bacteriostatic activity against Mycobacterium tuberculosis H37Rv at 1 ug/mL assessed as growth index after 5 days by radiometric growth assay (reference value: 210 growth index)
- Type: functional
MEASURE: Growth_index
Answers are plain numbers.

Some entries whose results are on file:
COMPOUND: Cn1c(=O)n(C)c(=O)n(CCCCC[S+]([O-])CC(N)=O)c1=O (stereo not drawn)
Growth_index: 30

COMPOUND: Cn1c(=O)n(C)c(=O)n(CCCCCS(=O)(=O)CC(=O)NN)c1=O
Growth_index: 50

// next entry
Entry Cn1c(=O)n(C)c(=O)n(CC(O)CS(=O)(=O)CC(=O)NN)c1=O (stereo not drawn) ; Growth_index = 30
